Assay: pH 7 Stability Assay
Format: physicochemical
Settings: ACN/pH 7.4 buffer with 1% DMSO stock; 1/49.5/49.5% v/v DMSO stock/ACN/pH 7.4 buffer, UPLC 0-24 h; read-out: pH7 T½
result_type: half-life at 0.1 mg/mL

Using the record for COC(=O)N[C@H](C(=O)N[C@@H](Cc1ccc(C#Cc2cnc(N3CC4CCC(C3)N4C3COC3)nc2)cc1)[C@H](CN(Cc1c(F)cc(-c2ccn(C(F)F)n2)cc1F)NC(=O)[C@@H](NC(=O)OC)C(C)(C)C(F)(F)F)OCOP(=O)(O)O)C(C)(C)C(F)(F)F [Compound 1] , report its half-life at 0.1 mg/mL. > 20 days

The reported measurements were obtained from patent US20250326779A1.
